Assay: Quantitative High-Throughput drug screen in 47 multiple myeloma cell lines against the NCATS MIPE library collection: KHM11_PLB cell viability assay (AID 1918962); also: nearly all actives have a fitted effect of over 35% in size; also: potency is read from the fitted curve at half-maximal effect
Settings: KHM11 myeloma cell viability, CellTiter-Glo ATP luminescence, 48 h; series mostly up to 45.8 µM
Records with an inconclusive call do not appear. Activity calls are given as the source filed them. Calls follow the shape of the dose curve; as a rule, active = well fitted cell-killing curve with a large enough effect; inconclusive = small, poorly fitted or top-dose-only effect, or effect the other way; inactive = no such curve, though single readings can be large or run the other way.

Compound structure	Potency
COc1cc(NC(=O)c2ccc(-c3ccc(Cl)cc3)o2)cc(OC)c1	14.8 µM (active)
CC1(C)CCC[C@@]2(C)[C@@H]1CC[C@@]1(C)OC(=O)C[C@H]21	inactive
O=C1NC(=O)C(=Cc2ccc3c(c2)OC(F)(F)O3)S1	13.2 µM (active)
O=C1c2ccccc2-[n+]2ccc3c([nH]c4ccccc43)c21	2.35 µM (active)
NC1=N[C@@]2(c3cc(NC(=O)c4ccc(F)cn4)ccc3F)COC[C@@H]2CS1	13.2 µM (active)
CC[C@H]1OC(=O)[C@H](C)C(=O)[C@H](C)[C@@H](O[C@H]2O[C@H](C)C[C@H](N(C)C)[C@@H]2O)[C@](C)(OC)C[C@@H](C)C(=O)[C@H](C)[C@H]2N(CCCCn3cnc(-c4cccnc4)c3)C(=O)O[C@]12C	inactive
CC(C)(C)c1cc(C(=O)O)c(NC(=O)Nc2ccc3[nH]ncc3c2)s1	inactive
O=c1[nH]cnc2c1ncn2[C@H]1CC[C@@H](CO)O1	inactive
O=C(O)C=Cc1ccc(O)c(O)c1	inactive

* * *

Experiment: Quantitative High-Throughput drug screen in 47 multiple myeloma cell lines against the NCATS MIPE library collection: KMS12PE_JCRB cell viability assay (AID 1918972); also: nearly all actives have a fitted effect of over 30% in size; also: potency is read from the fitted curve at half-maximal effect
Settings: KMS12PE myeloma viability, CellTiter-Glo ATP, 48 h; series mostly up to 45.8 µM
Records with an inconclusive call do not appear. The source made the active and inactive calls. Calls follow the shape of the dose curve; as a rule, active = well fitted cell-killing curve with a large enough effect; inconclusive = small, poorly fitted or top-dose-only effect, or effect the other way; inactive = no such curve, though single readings can be large or run the other way.
Endpoint: Potency

Compound	Assay result
O=c1cc(-c2cccc3c2Sc2ccccc2S3)oc(N2CCOCC2)c1	16.6 µM (active)
O=C(CCN1CCN(C(=O)OCc2cc(Cl)cc(Cl)c2)CC1)c1ccc2[nH]c(=O)oc2c1	inactive
O=c1c(O)c(-c2ccc(O)cc2)oc2cc(O)cc(O)c12	16.6 µM (active)
CC=CC[C@@H](C)C(=O)[C@H]1C(=O)N[C@@H](C(C)C)C(=O)N(C)CC(=O)N(C)[C@@H](CC(C)C)C(=O)N[C@@H](C(C)C)C(=O)N(C)[C@@H](CC(C)C)C(=O)N[C@@H](C)C(=O)N[C@H](C)C(=O)N(C)[C@@H](CC(C)C)C(=O)N(C)[C@@H](CC(C)C)C(=O)N(C)[C@@H](C(C)C)C(=O)N1C	inactive
CC(C)C[C@H](CC(=O)O)C(=O)N[C@@H](Cc1c[nH]c2ccccc12)C(=O)N[C@@H](C)c1ccccc1	inactive
COC(=O)N[C@H](C(=O)N1CCC[C@@H]1c1ncc(-c2ccc(-c3ccc(-c4cnc([C@@H]5CCCN5C(=O)[C@@H](NC(=O)OC)C(C)C)[nH]4)cc3)cc2)[nH]1)C(C)C	16.6 µM (active)
O=C(Nc1cccc(Br)c1)c1cccc(S(=O)(=O)N2CCCCCC2)c1	10.5 µM (active)
C[C@H]1[C@H](NC(=O)C(=NOC(C)(C)C(=O)O)c2csc(N)n2)C(=O)N1S(=O)(=O)O	inactive
Cc1cnc(C(=O)O)c[n+]1[O-]	inactive
COc1cc(N2CCC(N3CCN(C)CC3)CC2)ccc1Nc1ncnc(Nc2ccccc2S(=O)(=O)C(C)C)n1	inactive
C[C@@H]1CCN(C(=O)CC#N)C[C@H]1N(C)c1ncnc2[nH]ccc12	inactive
COc1ccc2c3c1OC1C[C@@H](O)C=C[C@@]31CCN(C)C2 (some centres undefined)	inactive
NC(=O)c1cccc(-c2cc(Nc3ccc(OC(F)(F)F)cc3)ncn2)c1	16.6 µM (active)
Clc1ccc(CCC(Cn2ccnc2)Sc2c(Cl)cccc2Cl)cc1 (centres undefined)	14.8 µM (active)
CC(C)(C)Cn1c(N)nc2ccc(-c3[nH]c(C(C)(C)C)nc3-c3ccc(F)cc3)nc21	inactive
O=C(N[C@@H](c1ccccc1)[C@@H]1CCCCN1)c1cccc(C(F)(F)F)c1Cl	23.5 µM (active)
CNC(=O)c1ccccc1Sc1ccc2c(C=Cc3ccccn3)n[nH]c2c1	1.66 µM (active)
CC(C)(C)NC(=O)Nc1cccc(Nc2ncc(F)c(NC(C)(C)CO)n2)c1	3.32 µM (active)
CC[C@H]1OC(=O)[C@H](C)[C@@H](O[C@H]2C[C@@](C)(OC)[C@@H](O)[C@H](C)O2)[C@H](C)[C@@H](O[C@@H]2O[C@H](C)C[C@H](N(C)C)[C@@H]2O)[C@](C)(O)C[C@@H](C)CN(C)[C@H](C)[C@@H](O)[C@]1(C)O	inactive
O=C1NC(=O)C(=Cc2ccc(-c3ccc(F)cc3)o2)S1	4.18 µM (active)
CC(=O)N(C)C1(c2ccccc2)CCN(CCC[C@]2(c3ccc(Cl)c(Cl)c3)CCCN(C(=O)c3ccccc3)C2)CC1	7.43 µM (active)
CC1CCC(C(=O)N(c2cc(C#CC(C)(C)C)sc2C(=O)O)C2CCC(O)CC2)CC1 (centres undefined)	inactive
CC(C)(C(=O)NCC(F)(F)C(F)(F)F)C(=O)N[C@@H]1C(=O)Nc2ccccc2-c2ccccc21	16.6 µM (active)
O=c1c(-c2ccc(O)cc2)coc2cc(O[C@@H]3O[C@H](CO)[C@H](O)[C@H](O)[C@H]3O)ccc12	inactive
CN(C)CCC=C1c2ccccc2COc2ccc(CC(=O)O)cc21	inactive
CC1(C)S[C@H]2[C@H](NC(=O)[C@@H](N)c3ccc(O)cc3)C(=O)N2[C@@H]1C(=O)O	4.18 µM (active)
Clc1ccc(COC(Cn2ccnc2)c2ccc(Cl)cc2Cl)cc1 (centres undefined)	23.5 µM (active)
NC1=N[C@@]2(c3cc(NC(=O)c4ccc(F)cn4)ccc3F)COC[C@@H]2CS1	1.05 µM (active)
Cc1c(NC(=O)c2ccc(C(C)(C)C)cc2)cccc1-c1cn(C)c(=O)c(Nc2ccc(C(=O)N3CCOCC3)cc2)n1	5.26 µM (active)
COc1ccc(C2CC(c3ccccc3)=NN2c2ccc(S(N)(=O)=O)cc2)cc1 (centres undefined)	11.8 µM (active)
COc1cccc2c1CCCC2CCCN1CCN(C2CCCCC2)CC1 (centres undefined)	16.6 µM (active)
C[C@]12CC[C@@H]3c4ccc(O)cc4C[C@@H](CCCCCCCCCS(=O)CCCC(F)(F)C(F)(F)F)[C@H]3[C@H]1CC[C@H]2O (some centres undefined)	7.43 µM (active)
CC(C)=CC[C@@H](O)C1=CC(=O)c2c(O)ccc(O)c2C1=O	18.7 µM (active)
O=C(Nc1ccccc1Br)N[C@@H]1CCN(c2ccc(C(F)(F)F)cn2)C1	inactive
